Cited source: ChEMBL document CHEMBL5058577

Below is a list of entries, each paired with its recorded Population Pyknosed Nuclei (%) value.
- Test system: HEK-293T
- method.summary: Multiplex assay against HEK293T
- Assay type: toxicity, cell-based
- condition.summary: human, 12 h, 1 µM, compound concentration 1 uM, replicate 2
quantity.name: Population Pyknosed Nuclei (%)

1) Cc1c(CC(=O)O)c2cccnc2n1Cc1ccc(S(C)(=O)=O)cc1C(F)(F)F [FEVIPIPRANT]	12
2) Cl.N=C(N)NC(=O)Cc1c(Cl)cccc1Cl [GUANFACINE HYDROCHLORIDE]	17
3) Cl.NCCc1ccc(O)c(O)c1 [DOPAMINE HYDROCHLORIDE]	14
4) O=C(CCCc1ccccc1)Nc1nc2ccccc2c(=O)s1	17
5) CC(C)(C)c1cc(NC(=O)Nc2ccc(-c3cn4c(n3)sc3cc(OCCN5CCOCC5)ccc34)cc2)no1 [QUIZARTINIB]	14
6) CCCOc1ccc2[nH]cc(C3=CCNCC3)c2n1.Cl	10
7) CC(=O)Nc1cccc2c1c(Sc1ccc(Cl)cc1)c(C)n2CC(=O)O [AZD1981]	13
8) O=C(NCCN1CCC(n2c(=O)[nH]c3cc(Cl)ccc32)CC1)c1ccc(F)cc1 [HALOPEMIDE]	15
9) Cc1cnc(-c2cc(N3CCN(C(=O)CCS(C)(=O)=O)CC3)ncc2Cl)c(C)c1	17
10) NCCc1cn(S(=O)(=O)c2c(Cl)nc3sccn23)c2ccccc12.O=C(O)C(=O)O	13
11) Cc1sc2c(c1C)C(c1ccc(Cl)cc1)=N[C@@H](CC(=O)NCCCCCCCCNC(=O)COc1cccc3c1C(=O)N(C1CCC(=O)NC1=O)C3=O)c1nnc(C)n1-2 (some centres not stated)	24
12) O=C1[C@H](Cc2ccc(O)cc2)N2C(=O)CCN(C(=O)NCc3ccccc3)[C@H]2CN1Cc1cccc2ccccc12	13
13) C[C@H](N)COC(=O)[C@@H](CCCCN)NC(=O)Cc1c(-c2ccc3ccccc3c2)[nH]c2c1ccc1ccccc12	16
14) CN1CCN(c2cc(-c3ccccc3)nc(N)n2)CC1	10
15) CCCCCC(O)/C=C/[C@H]1C(=O)CC(O)C1C/C=C\CCCC(=O)O (some centres not stated)	9
16) CN(C)C(=O)Cn1cc(-c2ccc(-c3cncc4ccccc34)cc2)cn1	14
17) N#Cc1c(Oc2cccc(OS(=O)(=O)CCCC(F)(F)F)c2)cccc1C(F)(F)F	17
